- System: KAI3 (IL-2 2.5 ng/mL)
- PROCEDURE_DETAILS: relative IC50 (inflection point of fitted viability curve, relative to fitted max inhibition); higher = less sensitive
- REPORTED_CONDITIONS: 72 h
Measured relative IC50 by item
Give the number; nM is assumed, so skip it.

Sample records with relative IC50:
- COMPOUND: "C/C(=C\\c1csc(C)n1)[C@@H]1C[C@@H]2O[C@]2(C)CCC[C@H](C)[C@H](O)[C@@H](C)C(=O)C(C)(C)[C@@H](O)CC(=O)N1 [Ixabepilone]"
  relative IC50 / nM: 383
- COMPOUND: "O=C(c1cc(Cc2n[nH]c(=O)c3ccccc23)ccc1F)N1CCN(C(=O)C2CC2)CC1"
  relative IC50 / nM: 1260
- COMPOUND: "Nc1ccn([C@@H]2O[C@H](CO)[C@@H](O)C2(F)F)c(=O)n1"
  relative IC50 / nM: 5.17

Entry under test: `Cc1ccc(C(=O)N(CCCN)[C@@H](c2oc3cc(Cl)ccc3c(=O)c2Cc2ccccc2)C(C)C)cc1` . Its relative IC50 was 10.9

Entry under test: `CCOc1cc2ncc(C#N)c(Nc3ccc(F)c(Cl)c3)c2cc1NC(=O)/C=C/CN(C)C` . Its relative IC50 was 260

Entry under test: `CC(C)N(CCCNC(=O)Nc1ccc(C(C)(C)C)cc1)C[C@H]1O[C@@H](n2cc(Br)c3c(N)ncnc32)[C@H](O)[C@@H]1O` . Its relative IC50 was 2540

Entry under test: `Nc1cc(F)ccc1NC(=O)/C=C/c1cnn(C/C=C/c2ccccc2)c1` . Its relative IC50 was 1940
